Reference source for all entries: patent US20230046728A1

# Test system: Expi293 cells transfected with His-Halotag
# ASSAY_OVERVIEW: Library cell penetration assay, cell crash method (Example 6)
# Format: in vitro ADME, human
# PARTICULARS: library pool tested as mixture, MS signal of —OH agent
MEASURED_ATTRIBUTE: Mass Shifted Peptide Signal in Cells

**Q:** For the compound shown here, CNC(=O)[C@H](C)NC(=O)[C@H](C)NC(=O)[C@H](CO)NC(=O)[C@]1(C)CCCC=CCCCCCC[C@@](C)(NC(=O)[C@H](Cc2ccccc2)NC(=O)[C@@H](NC(=O)[C@H](CC(C)C)NC(=O)CCC(=O)NCCOCCOCCCCCCCl)[C@@H](C)O)C(=O)N[C@@H](CCC(=O)O)C(=O)N[C@@H](Cc2ccc(O)cc2)C(=O)N[C@@H](Cc2c[nH]c3ccccc23)C(=O)N[C@@H](C)C(=O)N[C@@H](CCC(N)=O)C(=O)N[C@@H](CC2CCC2)C(=O)N1 (single isomer, unassigned) [PEP000120] , give the reported Mass Shifted Peptide Signal in Cells.
**A:** 4E+07

---

# Test system: Expi293 cells transfected with His-Halotag
# ASSAY_OVERVIEW: Library cell penetration assay, cell crash method (Example 6)
# Type: in vitro ADME, human
# PARTICULARS: Mass Shifted Peptide Signal in Cells divided by Mass Shifted Peptide Theoretical Max Signal, averaged across replicates
Give measured Cell Penetration Score for each item. Keep answers brief.
Could you keep your reply to the number by itself?

**Q:** For the substance shown here, HaloTagO2-Leu-Thr-Phe-ReN-Glu-Tyr-Trp-Ala-Ala-Cba-Az-Ser-Ala-Ala-NHMe [PEP000135] , give the reported Cell Penetration Score.
**A:** 7

**Q:** For the substance shown here, HaloTagO2-Leu-Thr-Phe-ReN-Glu-Tyr-Trp-Ala-Gln-Cba-Az-Ser-Ala-Ala-NHMe [PEP000131] , give the reported Cell Penetration Score.
**A:** 3

**Q:** For the substance shown here, HaloTagO2-Leu-Thr-Phe-ReN-Glu-Tyr-Trp-Ala-Gln-Cba-Az-Ser-Ala-Ala-NH2 [PEP000128] , give the reported Cell Penetration Score.
**A:** 3

**Q:** For the substance shown here, HaloTagO2-Leu-Thr-Phe-ReN-Thr-Tyr-Trp-Ala-Gln-Cba-Az-Ser-Ala-Ala-NHMe [PEP000132] , give the reported Cell Penetration Score.
**A:** 20

---

# System: Expi293 cells transfected with His-Halotag
# ASSAY_OVERVIEW: Library cell penetration assay, cell crash method (Example 6)
# Type: in vitro ADME, human
# PARTICULARS: MS signal of —OH agent from cells, library pool or individual peptide
MEASURED_ATTRIBUTE: Mass Shifted Peptide Signal in Cells

**Q:** For the substance shown here, HaloTagO2-Leu-Thr-Phe-ReN-Glu-Tyr-Trp-Ala-Ala-Cba-Az-Ser-Ala-Ala-NH2 [PEP000133] , give the reported Mass Shifted Peptide Signal in Cells.
**A:** 3E+05

**Q:** For the substance shown here, HaloTagO2-Leu-Thr-Phe-ReN-Glu-Tyr-Trp-Ala-Gln-Cba-Az-Ser-Ala-Ala-NH2 [PEP000128] , give the reported Mass Shifted Peptide Signal in Cells.
**A:** 1E+05

**Q:** For the substance shown here, HaloTagO2-Leu-Thr-Phe-ReN-Ala-Tyr-Trp-Ala-Gln-Cba-Az-Ser-Ala-Ala-NH2 [PEP000127] , give the reported Mass Shifted Peptide Signal in Cells.
**A:** 1E+06

**Q:** For the substance shown here, HaloTagO2-Leu-Thr-Phe-ReN-Glu-Tyr-Trp-Ala-Ala-Cba-Az-Ser-Ala-Ala-NHMe [PEP000135] , give the reported Mass Shifted Peptide Signal in Cells.
**A:** 3E+05

**Q:** For the substance shown here, HaloTagO2-Leu-Thr-Phe-ReN-Glu-Tyr-Trp-Ala-Thr-Cba-Az-Ser-Ala-Ala-NHMe [PEP000137] , give the reported Mass Shifted Peptide Signal in Cells.
**A:** 4E+05

**Q:** For the substance shown here, HaloTagO2-Leu-Thr-Phe-ReN-Glu-Tyr-Trp-Ala-Thr-Cba-Az-Ser-Ala-Ala-NH2 [PEP000134] , give the reported Mass Shifted Peptide Signal in Cells.
**A:** 1E+05

**Q:** For the substance shown here, HaloTagO2-Leu-Thr-Phe-ReN-Glu-Tyr-Trp-Ala-Gln-Cba-Az-Ser-Ala-Ala-NHMe [PEP000131] , give the reported Mass Shifted Peptide Signal in Cells.
**A:** 1E+05
